So I've got a bunch of molecules here, and I need their Selectivity Index values.
Test system: HEK293 cells
testDetails: in vitro
Format: cell-based
protocolConditions: LC50/MIC (HEK293 / S. aureus)
// no unit string in output, number only

Enquiry: # lookup: Selectivity Index of Oc1cc(OCc2ccccc2)ccc1-c1[nH]nc(C(F)(F)F)c1-c1ccc(Cl)cc1
Return: 9.14

Enquiry: Now give it for CCOc1ccc(-c2[nH]nc(C(F)(F)F)c2-c2ccccc2)c(O)c1 too.
Return: 4.1

Enquiry: Now give it for FC(F)(F)c1n[nH]c(-c2ccccc2)c1-c1ccc(Cl)cc1 too.
Return: 4.56

Enquiry: Now give it for COc1ccc(-c2[nH]nc(C(F)(F)F)c2-c2ccccc2)c(O)c1 too.
Return: 0.60

Enquiry: Now give it for Cc1n[nH]c(-c2ccc(O)cc2O)c1-c1ccc(Cl)cc1 too.
Return: 0.49
